Tested on: U2OS
Test: Incucyte cell viability with U2OS; note: filed as whole numbers so only -1 and 0 and 1 occur
Type: toxicity, cell-based
Conditions: human, 18 h, 10 µM, compound concentration 10 uM, replicate number 1, timepoint 18 hours
Readout Label: Growth Rate

Take a look at these entries with their results.
# Compound, Growth Rate
records = [
    ("Cc1cn2cc(CC(=O)N3CCC4(CC3)CN(Cc3ccc(-n5nccn5)cc3Cl)C4)nc2s1", 1),
    ("Cc1c(P(=S)(c2ccccc2)c2ccccc2)n2ccccc2[n+]1C/C=C/c1ccccc1.[Br-]", 0),
    ("CCOP(=O)(OCC)C(=Cc1cc(C(C)(C)C)c(O)c(C(C)(C)C)c1)P(=O)(OCC)OCC", 0),
]

Consider the additional compound presented here.
Hello, I am looking for reported Growth Rate with U2OS for CN1C(=O)[C@@H](NC(=O)c2cc3ccccc3[nH]2)N=C(c2ccccc2)c2ccccc21 [DEVAZEPIDE] . Could you help?
1

====

Test system: Fibroblast
Assay: Multiplex assay against human fibroblast
Type: toxicity, cell-based
Details: 24 h, 1 µM, compound concentration 1 uM, replicate 1
The following compounds are listed with their measured Population Tubulin-Different-Phenotype (%) values.
Write it as a number; the unit % goes unstated.

Take a look at these entries with their results.
# Compound, Quantitative Readout
records = [
    ("N#CCNC(=O)c1ccc(-c2ccnc(Nc3ccc(N4CCOCC4)cc3)n2)cc1", 18),
    ("CNC(=O)Nc1ccc2c(c1)CC[C@@]21OC(=O)N(CC(=O)N(Cc2ccc(F)cc2)[C@@H](C)C(F)(F)F)C1=O", 9),
    ("CC[C@H](Nc1ncnc2[nH]cnc12)c1nc2cccc(F)c2c(=O)n1-c1ccccc1", 15),
]

Consider the additional compound presented here.
Which Population Tubulin-Different-Phenotype (%) is reported for this compound? CN1C(=O)[C@@H](NC(=O)c2cc3ccccc3[nH]2)N=C(c2ccccc2)c2ccccc21 [DEVAZEPIDE]
73

====

Test system: U2OS
Assay: Multiplex assay against U2OS
Format: toxicity, cell-based
Settings: human, 48 h, 1 µM, compound concentration 1 uM, replicate 2
Could you label it Yes if measured Population Fragmented Nuclei (%) is 7% or higher, and No otherwise?

Observe how each entry below is paired with its result.
# Molecule, Target Or Test System, Label
measured = [
    ("Cc1ccc(S(=O)(=O)NC2c3ccccc3Oc3ccccc32)cc1", "U2OS", "No"),
    ("CN(c1cc(C(F)(F)F)nc(OCCC(=O)O)n1)c1cccc2c1CCC2", "U2OS", "No"),
    ("CC(Cc1ccc(O)c(O)c1)C(C)Cc1ccc(O)c(O)c1 (stereo not given) [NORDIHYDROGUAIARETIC ACID]", "U2OS", "Yes"),
]

Assess whether reported Population Fragmented Nuclei (%) for `CC(C)c1cc(Nc2nc(N3CCC[C@H](N)C3)ncc2C(N)=O)cc(C(C)C)n1` sits at 7% or higher.
Yes

====

Tested on: U2OS
Experiment: Multiplex assay against U2OS
Assay type: toxicity, cell-based
Details: human, 48 h, 1 µM, compound concentration 1 uM, replicate 2
Readout Label: Population Fragmented Nuclei (%)
Write it as a number; the unit % goes unstated.

# Compound, Target Or Test System, Readout Label, Result Units, Quantitative Readout
rows = [
    ("CN1C(=O)[C@@H](NC(=O)c2cc3ccccc3[nH]2)N=C(c2ccccc2)c2ccccc21 [DEVAZEPIDE]", "U2OS", "Population Fragmented Nuclei (%)", "%", 8),
    ("CC(/C=C1\\SC(=S)N(CCCC(=O)Nc2ccc(C(=O)O)c(O)c2)C1=O)=C\\c1ccccc1", "U2OS", "Population Fragmented Nuclei (%)", "%", 7),
    ("N#Cc1cccc(C(=O)Nc2cc(-c3ccccc3)nn2-c2ccccc2)c1", "U2OS", "Population Fragmented Nuclei (%)", "%", 3),
]

Which Population Fragmented Nuclei (%) is reported for this compound? `CCCc1cc(C)[nH]c(=O)c1CNC(=O)c1cc(-c2ccc(N3CCN(C(C)C)CC3)nc2)cc2c1cnn2C(C)C`
22

`CC(C)[C@H](CO)Nc1nc(Nc2cccc(Cl)c2)c2ncn(C(C)C)c2n1` ?
4

`C[C@@H](Oc1cc(-n2cnc3ccc(CN4CCN(C)CC4)cc32)sc1C(N)=O)c1ccccc1C(F)(F)F` ?
10

`C=CC(=O)Nc1cc(-n2c(=O)ccc3cnc4ccc(-c5ccc(NS(C)(=O)=O)cc5)cc4c32)ccc1C` ?
9

`Oc1cccc(-c2nc(N3CCOCC3)c3oc4ncccc4c3n2)c1` ?
10

From: ChEMBL document CHEMBL4689842
